Each recorded value in this set is attributed to patent US6914045B2.

Listed here: items and their measured MIC Enterococcus faecalis (GC 2242).
tested on: Enterococcus sp.; assay: in vitro antibacterial evaluation, MIC by broth dilution; assay type: cell-based; conditions: broth dilution, 18 hours at 35° C.
Numbered stars: 1 amine (or outer) side, 2 acyl side, 3 side chain; on linkers, the order of the positions; unused ones are H or OH. Square brackets hold non-standard residues; d marks the D form. Peptide text beside a SMILES is read from it. * marks the point of attachment. ξ: configuration not given here. X1 = N=C1NCC(C(O)C(N[*:1])C(=O)[*:2])N1C1OC(CO)C(O)C(O)C1O; ξEnduracididine(βξ-OH,4'ξ) = N=C1NCC(C(O)C(N)C(=O)O)N1; X2 = OCC1OC(OC2C(CO)OC(*)C(O)C2O)C(O)C(O)C1O; Diphenylacetyl = O=C(C(c1ccccc1)c1ccccc1)*; ξPhe(βξ-Me) = CC(c1ccccc1)C(N)C(=O)O
valueKind: MIC Enterococcus faecalis (GC 2242)

compound="CC(c1ccc(F)cc1)C1NC(=O)CNC(=O)C(CO)NC(=O)C(C(O)C2CNC(=N)N2C2OC(CO)C(O)C(O)C2O)NC(=O)C(C(O)C2CNC(=N)N2)NC(=O)C(Cc2ccc(OC3OC(CO)C(OC4OC(CO)C(O)C(O)C4O)C(O)C3O)cc2)NC1=O (centres unmarked) [Example 261a]" reading=">64 µg/mL"
compound="CC(c1ccccc1)C1NC(=O)CNC(=O)C(CO)NC(=O)C(C(O)C2CNC(=N)N2C2OC(CO)C(O)C3OC(C)(C)OC32)NC(=O)C(C(O)C2CNC(=N)N2)NC(=O)C(Cc2ccc(OC3OC(CO)C(OC4OC(CO)C(O)C(O)C4O)C4OC(C)(C)OC34)cc2)NC1=O (centres unmarked)" reading=">128 µg/mL"
compound="CC(c1ccccc1)C1NC(=O)CNC(=O)C(CO)NC(=O)C(C(O)C2CN(Cc3ccccc3)C(=N)N2C2OC(CO)C(O)C(O)C2O)NC(=O)C(C(O)C2CNC(=N)N2)NC(=O)C(Cc2ccc(OC3OC(CO)C(OC4OC(CO)C(O)C(O)C4O)C(O)C3O)cc2)NC1=O (centres unmarked)" reading=">128 µg/mL"
compound="CC(c1ccccc1)C1NC(=O)CNC(=O)C(COC(=O)C(c2ccccc2)c2ccccc2)NC(=O)C(C(O)C2CNC(=N)N2C2OC(CO)C(O)C(O)C2O)NC(=O)C(C(O)C2CNC(=N)N2)NC(=O)C(Cc2ccc(OC3OC(CO)C(OC4OC(CO)C(O)C(O)C4O)C(O)C3O)cc2)NC1=O (stereo not drawn) [Example 96a] (cyclo(G[ξPhe(βξ-Me)]Y(X2)[ξEnduracididine(βξ-OH,4'ξ)][X1]S(Diphenylacetyl)); configuration not given here)" reading=">128 µg/mL"
compound="CCCCCC(=O)OCC1OC(N2C(=N)NCC2C(O)C2NC(=O)C(C(O)C3CNC(=N)N3)NC(=O)C(Cc3ccc(OC4OC(CO)C(OC5OC(CO)C(O)C(O)C5O)C(O)C4O)cc3)NC(=O)C(C(C)c3ccccc3)NC(=O)CNC(=O)C(CO)NC2=O)C(O)C(O)C1O (centres unmarked)" reading=">64 µg/mL"

----------
Listed here: items and their measured MIC Coagulase Negative Staphylococcus (GC 4551).
system: Staphylococcus sp.; test: in vitro antibacterial evaluation, MIC by broth dilution; format: cell-based; conditions: broth dilution, 18 hours at 35° C.
Numbered stars: 1 amine (or outer) side, 2 acyl side, 3 side chain; on linkers, the order of the positions; unused ones are H or OH. Square brackets hold non-standard residues; d marks the D form. Peptide text beside a SMILES is read from it. ξ: configuration not given here. X1 = N=C1NCC(C(O)C(N[*:1])C(=O)[*:2])N1C1OC(CO)C(O)C(O)C1O; ξEnduracididine(βξ-OH,4'ξ) = N=C1NCC(C(O)C(N)C(=O)O)N1
valueKind: MIC Coagulase Negative Staphylococcus (GC 4551) (µg/mL)

compound="N=C1NCC(C(O)C2NC(=O)C(Cc3ccc(O)cc3)NC(=O)C(Cc3ccccc3)NC(=O)CNC(=O)C(CO)NC(=O)C(C(O)C3CNC(=N)N3C3OC(CO)C(O)C(O)C3O)NC2=O)N1 (stereo not drawn) [Example 279a] (cyclo(GFY[ξEnduracididine(βξ-OH,4'ξ)][X1]S); configuration not given here)" displayunit=µg/mL valueprefix=> reading=64
compound="CC(=O)OCC1OC(OC2C(CO)OC(Oc3ccc(CC4NC(=O)C(C(C)c5ccccc5)NC(=O)CNC(=O)C(CO)NC(=O)C(C(O)C5CNC(=N)N5C5OC(CO)C(O)C(O)C5O)NC(=O)C(C(O)C5CNC(=N)N5)NC4=O)cc3)C(O)C2O)C(O)C(OC(=O)CCC(C)C)C1O (stereo not shown) [Example 270b]" displayunit=µg/mL valueprefix== reading=4
compound="COc1ccc2cc(COCC3OC(OC4C(CO)OC(Oc5ccc(CC6NC(=O)C(C(C)c7ccccc7)NC(=O)CNC(=O)C(CO)NC(=O)C(CC7CNC(=N)N7C7OC(CO)C(O)C(O)C7O)NC(=O)C(CC7CNC(=N)N7)NC6=O)cc5)C(O)C4O)C(O)C(O)C3O)ccc2c1 (stereo not shown) [Example 245]" displayunit=µg/mL valueprefix== reading=8
compound="COc1ccc(COC2C(CO)OC(OC3C(CO)OC(Oc4ccc(CC5NC(=O)C(C(C)c6ccccc6)NC(=O)CNC(=O)C(CO)NC(=O)C(C(O)C6CNC(=N)N6C6OC(CO)C(O)C(O)C6O)NC(=O)C(C(O)C6CNC(=N)N6)NC5=O)cc4)C(O)C3O)C(O)C2O)cc1OCc1ccccc1 (stereo not shown) [Example 239a]" displayunit=µg/mL valueprefix== reading=2
